What IC50 was measured for each of the following?
- Target or test system: GluN2A-N615K-containing NMDARs (Homo sapiens, UniProt Q05586+Q12879, N615K)
- Protocol text: TEVC current recordings from Xenopus oocytes, channel blocker inhibition
- Assay type: cell-based
- Conditions used: IC50, 2A-N615K; w/ 1 mM Mg^2+; holding −40 mV
Number in µM, nothing else.

Req: Give me measured IC50, please, for this compound: CNC1(c2ccccc2Cl)CCCCC1=O (centres unmarked) [ketamine]
Resp: 1.6

Req: Return IC50 (reported value) for this compound: COc1ccc2c(c1)[C@]13CCCC[C@@H]1[C@H](C2)N(C)CC3 [dextromethorphan]
Resp: 3

---

For each of the molecules below, state its IC50.
- Target or test system: GluN2A-N614S-containing NMDARs (Homo sapiens, UniProt Q05586+Q12879, N614S)
- Protocol text: TEVC current recordings from Xenopus oocytes, channel blocker inhibition
- Format: cell-based
- Conditions used: IC50, 2A-N614S; w/ 1 mM Mg^2+; holding −40 mV
Answer format: numeric, µM implied, no suffix.

Req: Tell me its IC50 given CNC1(c2ccccc2Cl)CCCCC1=O (centres unmarked) as the entry.
Resp: 31

Req: Tell me IC50 reported for COc1ccc2c(c1)[C@]13CCCC[C@@H]1[C@H](C2)N(C)CC3
Resp: 32

---

- Target or test system: WT GluN1/GluN2A (Homo sapiens, UniProt Q05586+Q12879)
- Protocol text: Current-voltage curves
- Conditions used: read-out: KD, 0 mV; WT 2A; 1 mM Mg^2+ alone
Reported endpoint: Kd

Req: Provide only the value of recorded Kd for [Mg+2] [Mg^2+]
Resp: 1520 µM

---

- Target or test system: GluN2B-G611V-containing NMDARs (Homo sapiens, UniProt Q05586+Q13224, G611V)
- Protocol text: TEVC current recordings from Xenopus oocytes, channel blocker inhibition
- Assay type: cell-based
- Conditions used: IC50, 2B-G611V; w/o Mg^2+; holding −40 mV
Reported endpoint: IC50

Req: # return IC50 of CNC1(c2ccccc2Cl)CCCCC1=O (centres unmarked) (system: GluN2B-G611V-containing NMDARs (Homo sapiens, UniProt Q05586+Q13224, G611V))
Resp: 3.1 µM

Req: Report value only: IC50, GluN2B-G611V-containing NMDARs (Homo sapiens, UniProt Q05586+Q13224, G611V), COc1ccc2c(c1)[C@]13CCCC[C@@H]1[C@H](C2)N(C)CC3
Resp: 3.6 µM

---

- Target or test system: GluN1-G620R/GluN2A (Homo sapiens, UniProt Q05586+Q12879, G620R)
- Protocol text: TEVC current recordings from Xenopus oocytes, channel blocker inhibition
- Format: cell-based
- Conditions used: IC50, 1-G620R/2A; w/ 1 mM Mg^2+; holding −40 mV
Reported endpoint: pIC50
Just so you know, pIC50 here is -log10 of the concentration in molar units; reply with that number alone.

Req: Return the recorded pIC50 value; entry: CNC1(c2ccccc2Cl)CCCCC1=O (centres unmarked) [ketamine]
Resp: 6.00

Req: Specify measured pIC50 for COc1ccc2c(c1)[C@]13CCCC[C@@H]1[C@H](C2)N(C)CC3 [dextromethorphan] .
Resp: 5.36

---

- Target or test system: GluN1/GluN2B-V620M (Homo sapiens, UniProt Q05586+Q13224, V620M)
- Protocol text: Current-voltage curves
- Conditions used: read-out: KD, 0 mV; 2B-V620M; 1 mM Mg^2+ alone
Reported endpoint: pKd
pKd is a log-scale quantity: -log10 of the concentration expressed in molar.

Req: Name the recorded pKd of the molecule listed here: [Mg+2] [Mg^2+]
Resp: 2.41

---

- Target or test system: GluN2B-N616K-containing NMDARs (Homo sapiens, UniProt Q05586+Q13224, N616K)
- Protocol text: TEVC current recordings from Xenopus oocytes, channel blocker inhibition
- Type: cell-based
- Conditions used: IC50, 2B-N616K; w/ 1 mM Mg^2+; holding −40 mV
Kindly state pIC50 for each of the entries shown.
Just the number, please; pIC50 means minus log10 of the concentration in mol/L.

Req: For GluN2B-N616K-containing NMDARs (Homo sapiens, UniProt Q05586+Q13224, N616K), give the measured pIC50 of the entry CNC1(c2ccccc2Cl)CCCCC1=O (centres unmarked)
Resp: 5.60

Req: Fetch value of pIC50 on GluN2B-N616K-containing NMDARs (Homo sapiens, UniProt Q05586+Q13224, N616K) for COc1ccc2c(c1)[C@]13CCCC[C@@H]1[C@H](C2)N(C)CC3 .
Resp: 5.35

---

- Target or test system: GluN2B-W607C-containing NMDARs (Homo sapiens, UniProt Q05586+Q13224, W607C)
- Protocol text: TEVC current recordings from Xenopus oocytes, channel blocker inhibition
- Assay type: cell-based
- Conditions used: IC50, 2B-W607C; w/ 1 mM Mg^2+; holding −40 mV
Please go through the items and note down their IC50.
Please state the figure in µM; there is no need to write the unit.

Req: Fill in: IC50 on GluN2B-W607C-containing NMDARs (Homo sapiens, UniProt Q05586+Q13224, W607C), entry CNC1(c2ccccc2Cl)CCCCC1=O (centres unmarked) [ketamine]
Resp: 11

Req: Please indicate recorded IC50 of COc1ccc2c(c1)[C@]13CCCC[C@@H]1[C@H](C2)N(C)CC3 [dextromethorphan] measured with GluN2B-W607C-containing NMDARs (Homo sapiens, UniProt Q05586+Q13224, W607C).
Resp: 11

---

- Target or test system: WT GluN1/GluN2B (Homo sapiens, UniProt Q05586+Q13224)
- Protocol text: TEVC current recordings from Xenopus oocytes, channel blocker inhibition
- Format: cell-based
- Conditions used: IC50, WT GluN1/WT 2B; w/ 1 mM Mg^2+; holding −40 mV
Reported endpoint: pIC50
The quantity pIC50 is defined as the negative base-10 logarithm of the molar concentration.

Req: Please list pIC50 recorded for the compound CNC1(c2ccccc2Cl)CCCCC1=O (centres unmarked)
Resp: 4.85

Req: Note pIC50 for the compound shown: COc1ccc2c(c1)[C@]13CCCC[C@@H]1[C@H](C2)N(C)CC3
Resp: 4.66

---

For each entry below, report its IC50 value.
- Target or test system: GluN2B-V620M-containing NMDARs (Homo sapiens, UniProt Q05586+Q13224, V620M)
- Protocol text: TEVC current recordings from Xenopus oocytes, channel blocker inhibition
- Assay type: cell-based
- Conditions used: IC50, 2B-V620M; w/ 1 mM Mg^2+; holding −40 mV
Lab book: enter the figure in µM, no units written.

Req: Given COc1ccc2c(c1)[C@]13CCCC[C@@H]1[C@H](C2)N(C)CC3 , respond with its IC50.
Resp: 3.5

Req: Supply IC50 value. Item: CNC1(c2ccccc2Cl)CCCCC1=O (centres unmarked)
Resp: 7

---

- Target or test system: WT GluN1/GluN2B (Homo sapiens, UniProt Q05586+Q13224)
- Protocol text: TEVC current recordings from Xenopus oocytes, channel blocker inhibition
- Format: cell-based
- Conditions used: IC50, WT GluN1/WT 2B; w/o Mg^2+; holding −40 mV
Exercise: for every item that follows, state its recorded pIC50.
Please note pIC50 is a logarithmic value: minus log10 of concentration in mol/L. Answer with that number alone.

Req: Determine its reported pIC50: COc1ccc2c(c1)[C@]13CCCC[C@@H]1[C@H](C2)N(C)CC3
Resp: 5.32

Req: In one line, give reported pIC50 of the entry CNC1(c2ccccc2Cl)CCCCC1=O (centres unmarked) .
Resp: 5.38

---

I'd appreciate it if you could supply IC50 values for the items below.
- Target or test system: GluN1/GluN2B-N615I (Homo sapiens, UniProt Q05586+Q13224, N615I)
- Protocol text: TEVC current recordings from Xenopus oocytes, channel blocker inhibition
- Type: cell-based
- Conditions used: IC50, 2B-N615I; w/o Mg^2+; holding −40 mV

Req: Jot down IC50 (GluN1/GluN2B-N615I (Homo sapiens, UniProt Q05586+Q13224, N615I)) of COc1ccc2c(c1)[C@]13CCCC[C@@H]1[C@H](C2)N(C)CC3 .
Resp: 15 µM

Req: For GluN1/GluN2B-N615I (Homo sapiens, UniProt Q05586+Q13224, N615I), give the measured IC50 of the entry CNC1(c2ccccc2Cl)CCCCC1=O (centres unmarked)
Resp: 0.51 µM

---

- Target or test system: WT GluN1/GluN2A (Homo sapiens, UniProt Q05586+Q12879)
- Protocol text: TEVC current recordings from Xenopus oocytes, channel blocker inhibition
- Assay type: cell-based
- Conditions used: IC50, WT GluN1/WT 2A; w/ 1 mM Mg^2+; holding −40 mV
Reported endpoint: pIC50
Please keep in mind that pIC50 is minus log10 of the molar concentration; only the number is needed.

Req: Report measured pIC50 on WT GluN1/GluN2A (Homo sapiens, UniProt Q05586+Q12879); entry: COc1ccc2c(c1)[C@]13CCCC[C@@H]1[C@H](C2)N(C)CC3 [dextromethorphan]
Resp: 4.60

Req: Look up and report measured pIC50 (WT GluN1/GluN2A (Homo sapiens, UniProt Q05586+Q12879)) for the following compound: CNC1(c2ccccc2Cl)CCCCC1=O (centres unmarked) [ketamine]
Resp: 4.77
